Test system: Calpain activity in SH-SY5Y cells
Assay: SH-SY5Y + AMC fluorescence assay (Suc-LLVY-AMC substrate)
Assay type: cell-based
Settings: read-out: SH-SY5Y + AMC IC50
pIC50: −log10 of the molar value.
Parameter pIC50: see the listing below.

These recorded examples may help you get a feel for the data.
molecule	tested.on	pIC50
CC#Cc1nn(-c2ccccc2)cc1C(=O)NC(Cc1ccccc1)C(=O)C(N)=O (centres unmarked)	Calpain activity in SH-SY5Y cells	> 5.00
Cc1cc(C(=O)NC(Cc2ccccc2)C(=O)C(N)=O)n(-c2ccc(CN3CCOCC3)cc2)n1 (centres unmarked)	Calpain activity in SH-SY5Y cells	< 4.60
NC(=O)C(=O)[C@H](Cc1ccccc1)NC(=O)c1cc(C2CC2)nn1-c1ccccc1	Calpain activity in SH-SY5Y cells	> 5.00

// moving on: another record for pIC50
Exercise: Using the record for Cc1cc(C(=O)NC(Cc2ccccc2)C(=O)C(N)=O)c(-n2cc3ccccc3n2)s1 (centres unmarked) , report its pIC50.
Solution: < 4.60
